assay: Maximum solubility of aqueous DPAS in sodium phosphate buffer; format: physicochemical; details: 0.15 M sodium phosphate buffer (pH 7.5)
REPORTED ENDPOINT: solubility

Give its solubility value. Item: `O=S(=O)([O-])c1ccc2c(-c3ccccc3)c3ccccc3c(-c3ccccc3)c2c1.[Na+]`
~10 µM
